Ref: the supplement of paper PMC10567573

B1: FBXO3 (parent)
chain: GGFPIIRDQIFRYVHDPECVATTG

# Variants of: B1
# ASSAY_NAME: protein stability index of a GFP-peptide fusion (GPS, HEK-293T) (PSI 1-6); higher = more stable;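 further: lentivirally expressed fusions sorted by FACS into six bins by GFP to DsRed ratio, PSI derived from sequencing read proportions per bin multiplied by bin number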
# MEASUREMENT_PARAMETERS: c terminus: a fixed tail appended
Provide the recorded protein stability index for the entries that follow.
Could you keep your reply to the number by itself?

## Input Can you share its protein stability index? I mean this variant: G1I
## Output 2.05

## Input Fill in the blank: the reported protein stability index of P17W is ____.
## Output 2.01

## Input Form field: reported protein stability index of P4S
## Output 2.03
